ENDPOINT: melting point

TEST_SMILES	TEST_VALUE
C=CCOC(=O)c1cccc2[nH]n(C(=O)NCCCCCC)c(=O)c12	67 to 69 °C
CCc1cccc(CC)c1CNC(=O)n1[nH]c2c(C(=O)O)cccc2c1=O	> 250 °C
CCc1cccc(C)c1CNC(=O)n1c(=O)c2cccc(C(=O)O)c2n1CC(=O)OC	220 to 222 °C
CCCn1c2c(C(=O)O)cccc2c(=O)n1C(=O)NCc1c(C)cccc1CC	> 250 °C
